Form field: Toxicity Data, Average, Mean (one value per entry).
- System: cells (nuclei count)
- PARTICULARS: average of Exp 1-3 (SMW475, SMW477, SMW478), n 9, 10 uM
QUANTITY KIND: Toxicity Data, Average, Mean (%)

>>> result("CCN(CC)CCN(Cc1ccccc1)Cc1ccccn1")
80.17
>>> result("CCN(CC)CCN(Cc1cccs1)C(=O)c1cccs1")
91.00
>>> result("COC(=O)c1csc(CN(CCN(C)C)Cc2ccccc2)c1")
102.59
>>> result("CN(C)CCN(Cc1cocn1)Cc1cccs1")
89.77
>>> result("COC(=O)c1csc(CN(CCN(C)C)Cc2ccsc2)c1")
109.50
>>> result("CCN(CC)CCN(Cc1ccccn1)Cc1ccc(C)o1")
88.15
>>> result("COC(=O)c1csc(CN(CCN(C)C)Cc2cccs2)c1")
90.99

* * *

- Test system: cells (nuclei count)
- PARTICULARS: Average of Exp 1-3, n 9, 5 uM
QUANTITY KIND: Toxicity Data, Average, Mean (%)

>>> result("CCN(CC)CCN(Cc1ccc(C)o1)Cc1cccs1")
124.00
>>> result("OC(COc1c(CNCCc2ccccc2F)cccc1N1CCNCC1)CN1CCCC1 (stereo not shown)")
125.64
>>> result("Cc1ccc(CN(CCN(C)C)Cc2cc(C#CCO)cs2)s1")
99.54
>>> result("CCOc1cccc(CNCCc2ccccc2F)c1OCC(O)CN1CCN(C)CC1 (stereo not shown)")
125.56
>>> result("CCN(CC)CCN(Cc1ccccc1)Cc1ccc(C)o1")
129.20
>>> result("COc1ccc(CNCCc2ccccc2F)c(OCC(O)CN2CCN(C)CC2)c1 (racemic) [UMB18G]")
120.64
>>> result("Cc1cc(CN(CCN(C)C)Cc2ccsc2)oc1C")
120.66

* * *

- Test system: cells (nuclei count)
- PARTICULARS: average of Exp 1-3 (SMW475, SMW477, SMW478), n 9, 50 uM
QUANTITY KIND: Toxicity Data, Average, Mean (%)

>>> result("CCN(CC)CCN(Cc1ccccc1)Cc1ccccn1")
59.20
>>> result("CCN(CC)CCN(Cc1cccs1)C(=O)c1cccs1")
67.85
>>> result("COC(=O)c1csc(CN(CCN(C)C)Cc2cccs2)c1")
67.81
>>> result("COC(=O)c1csc(CN(CCN(C)C)Cc2ccsc2)c1")
96.45
>>> result("CCN(CC)CCN(Cc1ccccn1)Cc1ccc(C)o1")
63.21
>>> result("COC(=O)c1csc(CN(CCN(C)C)Cc2ccccc2)c1")
86.57
>>> result("CN(C)CCN(Cc1cocn1)Cc1cccs1")
60.50

* * *

- System: SARS2
- Assay type: cell-based, SARS-CoV-2
- PARTICULARS: Average of Exp 1-3, n 9, 50 uM
Form field: Infection Data, Average, Mean (one value per entry).
QUANTITY KIND: Infection Data, Average, Mean (%)

>>> result("COc1ccc(CNCCc2ccccc2F)c(OCC(O)CN2CCN(C)CC2)c1 (racemic) [UMB18G]")
11.46
>>> result("Cc1ccc(CN(CCN(C)C)Cc2cc(C#CCO)cs2)s1")
43.32
>>> result("CCN(CC)CCN(Cc1ccc(C)o1)Cc1cccs1")
19.26
>>> result("Cc1cc(CN(CCN(C)C)Cc2ccsc2)oc1C")
20.11
>>> result("CCOc1cccc(CNCCc2ccccc2F)c1OCC(O)CN1CCN(C)CC1 (stereo not shown)")
12.53
>>> result("CCN(CC)CCN(Cc1ccccc1)Cc1ccc(C)o1")
25.76
>>> result("OC(COc1c(CNCCc2ccccc2F)cccc1N1CCNCC1)CN1CCCC1 (stereo not shown)")
2.68
